// reported pIC50 for each item listed
Tested on: pAKT in T47D (PI3Kα H1047R mutant) cells
Assay: Inhibition of pAKT (alphaLISA Surefire Ultra AKT 1/2/3 pS473) in T47D cells
Format: cell-based
Conditions: Homo sapiens; T47D (PI3Kα H1047R mutant) cells, 24 hr compound incubation, alphaLISA pS473; read-out: T47D (H1047R) pAKT 24 hr (IC50)
Entry type: numeric. Quantity: pIC50, the -log10 of concentration in molar units.

Cc1cc([C@@H](C)Nc2ccc(Cl)nc2C(=O)O)c2nc(N3CCN(c4ccc(C(F)(F)F)cn4)CC3)c(C#N)nc2c1; 8.41
Cc1cc([C@@H](C)Nc2ccc(Cl)nc2C(=O)O)c2nc(N3CCC[C@H]([C@H](C)O)C3)c(C#N)nc2c1 [Example 261A]; 8.49
Cc1cc([C@@H](C)Nc2ccc(Cl)nc2C(=O)O)c2nc(N3CCC(=O)CC3)c(C#N)nc2c1; 8.34
Cc1cc([C@@H](C)Nc2ccc(Cl)nc2C(=O)O)c2nc(N3CC(F)(F)C3)c(C#N)nc2c1; 8.85
Cc1cc([C@@H](C)Nc2ccc(Cl)nc2C(=O)O)c2nc(N3C[C@@H](F)[C@@H](C)C3)c(C#N)nc2c1; 8.96

Field: next molecule
**Q:** What measured pIC50 goes with "Cc1cc([C@@H](C)Nc2ccc(Cl)nc2C(=O)O)c2nc(N3C[C@@H](F)[C@@H](F)C3)c(C#N)nc2c1" ?
**A:** 8.89

###

System: pAKT in T47D (PI3Kα H1047R mutant) cells
Test: Inhibition of pAKT (alphaLISA Surefire Ultra AKT 1/2/3 pS473) in T47D cells
Format: cell-based
Settings: Homo sapiens; T47D (PI3Kα H1047R mutant) cells, 24 hr compound incubation, alphaLISA pS473; read-out: T47D (H1047R) pAKT 24 hr (IC50)
Observed Property: IC50 (nM)
Just the number in nM, nothing appended.

Worked cases, answers included:
Cc1cc([C@@H](C)Nc2ccc(Cl)nc2C(=O)O)c2nc(N3CC4(CCC4(F)F)C3)c(C#N)nc2c1; 0.11
Cc1cc([C@@H](C)Nc2cccnc2C(=O)O)c2nc(N3CCC(F)(F)C3)c(C#N)nc2c1; 58.1
C[C@H](Nc1ccccc1C(=O)O)c1cc(F)cc2nc(C#N)c(N3CCC(F)(F)CC3)nc12; 561
Cc1cc([C@@H](C)Nc2ccc(Cl)nc2C(=O)O)c2nc(N3C[C@@H]4[C@H](CO)[C@@H]4C3)c(C#N)nc2c1; 6.8
Cc1cc([C@@H](C)Nc2ccc(Cl)nc2C(=O)O)c2nc(N3CCC(C)(C)CC3)c(C#N)nc2c1; 7.9
COC[C@H]1CN(c2nc3c([C@@H](C)Nc4ccc(Cl)nc4C(=O)O)cc(C)cc3nc2C#N)CCO1 [Example 236B]; 3.6
Cc1cc([C@@H](C)Nc2ccc(Cl)nc2C(=O)O)c2nc(N3CC4CS(=O)(=O)CC4C3)c(C#N)nc2c1 (some centres unmarked); 33.2

Field: next molecule
**Q:** What measured IC50 goes with "Cc1cc([C@@H](C)Nc2ccc(Cl)nc2C(=O)O)c2nc(NCC3CC3)c(C#N)nc2c1" ?
**A:** 1.2
